Values from paper PMC10649008

experiment.description: Single-dose plasma pharmacokinetics of telavancin in pediatric subjects (noncompartmental analysis)
Format: in vivo, human
test.parameters: human, in vivo, iv, 10 mg/kg, Cohort 2 (6–11 years), N = 6; single 10 mg/kg IV infusion over 60 min; plasma; mean ± SD; read-out: T 1/2 (terminal elimination half-life) (converted)

| smiles.string | half-life |
| --- | --- |
| CCCCCCCCCCNCCN[C@@]1(C)C[C@H](O[C@H]2[C@H](Oc3c4cc5cc3Oc3ccc(cc3Cl)[C@@H](O)[C@@H](NC(=O)[C@@H](CC(C)C)NC)C(=O)N[C@@H](CC(N)=O)C(=O)N[C@H]5C(=O)N[C@H]3C(=O)N[C@H](C(=O)N[C@H](C(=O)O)c5cc(O)c(CNCP(=O)(O)O)c(O)c5-c5cc3ccc5O)[C@H](O)c3ccc(c(Cl)c3)O4)O[C@H](CO)[C@@H](O)[C@@H]2O)O[C@@H](C)[C@H]1O | 5.19 h |
